For each of the molecules below, state its inhibition at 1 µM.
# subjectOfTest: Human JAK2 (Homo sapiens (Human), UniProt O60674)
# Sequence (O60674 whole entry): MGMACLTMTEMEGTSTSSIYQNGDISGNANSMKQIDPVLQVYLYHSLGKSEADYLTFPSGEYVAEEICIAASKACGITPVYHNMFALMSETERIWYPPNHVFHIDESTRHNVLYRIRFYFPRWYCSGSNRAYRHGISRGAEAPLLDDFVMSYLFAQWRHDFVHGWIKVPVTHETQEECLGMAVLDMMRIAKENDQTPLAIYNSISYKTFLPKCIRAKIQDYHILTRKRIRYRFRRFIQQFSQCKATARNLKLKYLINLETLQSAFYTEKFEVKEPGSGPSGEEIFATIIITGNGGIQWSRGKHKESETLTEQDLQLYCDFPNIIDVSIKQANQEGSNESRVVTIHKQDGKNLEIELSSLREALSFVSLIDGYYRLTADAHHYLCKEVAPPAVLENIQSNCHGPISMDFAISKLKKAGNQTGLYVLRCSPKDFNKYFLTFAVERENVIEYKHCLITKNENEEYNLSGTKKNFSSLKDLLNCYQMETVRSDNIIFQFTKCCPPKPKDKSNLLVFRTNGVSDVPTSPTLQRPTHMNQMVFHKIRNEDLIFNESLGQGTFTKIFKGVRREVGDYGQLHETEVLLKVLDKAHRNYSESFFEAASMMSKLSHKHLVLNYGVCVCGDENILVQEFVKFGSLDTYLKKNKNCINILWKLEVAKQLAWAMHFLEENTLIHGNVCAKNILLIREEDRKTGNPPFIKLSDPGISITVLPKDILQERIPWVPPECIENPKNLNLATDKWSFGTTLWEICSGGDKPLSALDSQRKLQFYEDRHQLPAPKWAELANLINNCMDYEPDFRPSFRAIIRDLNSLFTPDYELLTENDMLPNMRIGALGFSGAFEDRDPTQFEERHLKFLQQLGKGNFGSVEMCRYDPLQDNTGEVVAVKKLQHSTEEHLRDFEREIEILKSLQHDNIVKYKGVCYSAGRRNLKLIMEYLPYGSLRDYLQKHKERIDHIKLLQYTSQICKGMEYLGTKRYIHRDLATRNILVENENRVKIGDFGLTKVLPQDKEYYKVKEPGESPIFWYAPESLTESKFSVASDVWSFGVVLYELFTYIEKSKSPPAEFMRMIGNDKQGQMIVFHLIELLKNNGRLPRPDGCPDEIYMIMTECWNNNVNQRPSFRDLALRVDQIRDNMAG
# assayOverview: In vitro kinase inhibition test, JAK2 (33P-ATP filter scintillation)
# Format: biochemical
# conditionDescription: compound at 1 uM; read-out: JAK2 kinase-phosphorylation inhibitory level (% inhibition)
Return type: number; implicit unit %.

Lab note: measured inhibition at 1 µM of CC(C)S(=O)(=O)N1C[C@H](N(C)c2ncnc3[nH]ccc23)C2(CC2)C1 was 76

Lab note: measured inhibition at 1 µM of CN(c1ncnc2[nH]ccc12)[C@H]1CN(S(=O)(=O)c2ccccc2F)CC12CC2 was 84

Lab note: measured inhibition at 1 µM of CN(c1ncnc2[nH]ccc12)[C@H]1CN(C(=O)c2ccncc2)CC12CC2 was -14

Lab note: measured inhibition at 1 µM of CN(c1ncnc2[nH]ccc12)[C@@H]1CN(C(=O)CN=[N+]=[N-])CC12CC2 was 12

Lab note: measured inhibition at 1 µM of CCC(=O)N1CC(N(C)c2ncnc3[nH]ccc23)C2(CC2)C1 (centres unmarked) was -22

Lab note: measured inhibition at 1 µM of CCC(=O)N1C[C@@H](N(C)c2ncnc3[nH]ccc23)C2(CC2)C1 was -9

Lab note: measured inhibition at 1 µM of CN(c1ncnc2[nH]ccc12)[C@H]1CN(S(=O)(=O)c2ccc3ccccc3c2)CC12CC2 was 65

Lab note: measured inhibition at 1 µM of CN(c1ncnc2[nH]ccc12)[C@H]1CN(C(=O)Nc2ccccc2)CC12CC2 was 52

Lab note: measured inhibition at 1 µM of CC(=O)N1CCC(C(=O)N2C[C@H](N(C)c3ncnc4[nH]ccc34)C3(CC3)C2)CC1 was 2

Lab note: measured inhibition at 1 µM of CN(c1ncnc2[nH]ccc12)[C@H]1CN(S(=O)(=O)c2ccccc2C#N)CC12CC2 was 64

Lab note: measured inhibition at 1 µM of CN(c1ncnc2[nH]ccc12)[C@H]1CN(C(=O)Nc2cccc(Cl)c2Cl)CC12CC2 was 23

Lab note: measured inhibition at 1 µM of CC(C)C(=O)N1C[C@H](N(C)c2ncnc3[nH]ccc23)C2(CC2)C1 was 25

Lab note: measured inhibition at 1 µM of CN(c1ncnc2[nH]ccc12)[C@H]1CN(C(=O)c2ccccc2)CC12CC2 was -11

Lab note: measured inhibition at 1 µM of CN(c1ncnc2[nH]ccc12)[C@H]1CN(C(=O)c2ccccc2C(F)(F)F)CC12CC2 was -14

Lab note: measured inhibition at 1 µM of CN(c1ncnc2[nH]ccc12)C1CN(C(=O)CC#N)CC12CC2 (racemic) was 53

Lab note: measured inhibition at 1 µM of CN(c1ncnc2[nH]ccc12)[C@H]1CN(C(=O)C2CC2)CC12CC2 was 10

Lab note: measured inhibition at 1 µM of CN(c1ncnc2[nH]ccc12)[C@H]1CN(C(=O)CC#N)CC12CC2 was 79
